target: Histone deacetylase 1 (Homo sapiens); assay: Inhibition of HDAC1 in human HeLa cell nuclear extract using Bos-Lys(acetyl)-AMC as substrate preincubated for 5 mins followed by substrate addition incubated for 30 mins; type: cell-free
Sequence (Q13547 whole entry): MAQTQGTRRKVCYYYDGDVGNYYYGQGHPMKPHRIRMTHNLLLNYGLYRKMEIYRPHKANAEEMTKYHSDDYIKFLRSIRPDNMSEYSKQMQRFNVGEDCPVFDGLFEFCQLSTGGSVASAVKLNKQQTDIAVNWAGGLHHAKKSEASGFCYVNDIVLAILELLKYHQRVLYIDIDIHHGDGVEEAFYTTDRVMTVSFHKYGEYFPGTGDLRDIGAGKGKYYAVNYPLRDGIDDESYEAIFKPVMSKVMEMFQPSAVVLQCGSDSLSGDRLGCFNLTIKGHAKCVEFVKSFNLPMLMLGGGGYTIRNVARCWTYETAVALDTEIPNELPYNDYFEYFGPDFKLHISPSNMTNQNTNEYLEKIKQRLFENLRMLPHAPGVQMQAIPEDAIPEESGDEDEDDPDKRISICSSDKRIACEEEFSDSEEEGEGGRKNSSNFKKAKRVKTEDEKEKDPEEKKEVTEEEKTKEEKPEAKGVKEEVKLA
Provide the reported IC50 of each item.
// return the numeric value with its unit appended

Would you mind telling me what IC50 value was observed for `Cn1cc(-c2ccnc(Nc3ccc(NC(=O)CCCCCC(=O)NO)cc3)n2)c2ccccc21` ? 0.023 µM

Would you mind telling me what IC50 value was observed for `Cn1cc(-c2ccnc(Nc3ccc(NC(=O)CCCCCCC(=O)NO)cc3)n2)c2ccccc21` ? 0.105 µM

Would you mind telling me what IC50 value was observed for `COc1cc(NC(=O)CCCCCC(=O)NO)ccc1Nc1nccc(-c2cn(C)c3ccccc23)n1` ? 0.121 µM

Would you mind telling me what IC50 value was observed for `COc1cc(NC(=O)CCCCCCC(=O)NO)ccc1Nc1nccc(-c2cn(C)c3ccccc23)n1` ? 0.085 µM
